Biological target: human recombinant MAO-B (Homo sapiens, UniProt P27338)
Sequence (P27338 whole entry): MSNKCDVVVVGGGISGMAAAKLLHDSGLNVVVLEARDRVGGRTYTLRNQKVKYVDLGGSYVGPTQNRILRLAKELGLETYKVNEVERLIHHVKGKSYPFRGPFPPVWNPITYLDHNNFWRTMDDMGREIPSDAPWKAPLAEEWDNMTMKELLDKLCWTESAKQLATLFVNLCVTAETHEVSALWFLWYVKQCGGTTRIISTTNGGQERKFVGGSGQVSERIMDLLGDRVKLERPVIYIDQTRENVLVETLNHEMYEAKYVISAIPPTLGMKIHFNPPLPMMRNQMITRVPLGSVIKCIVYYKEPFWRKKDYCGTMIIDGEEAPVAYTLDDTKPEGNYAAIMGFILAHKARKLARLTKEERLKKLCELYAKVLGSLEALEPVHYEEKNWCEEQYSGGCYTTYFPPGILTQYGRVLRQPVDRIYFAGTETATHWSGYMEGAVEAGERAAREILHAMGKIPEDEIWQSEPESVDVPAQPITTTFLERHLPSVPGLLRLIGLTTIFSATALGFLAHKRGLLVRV
Assay: kynuramine oxidation deamination assay, MAO-B inhibition (IC50)
Conditions: recombinant human MAO-B; kynuramine 50 μM; mean ± S.D. of triplicate
MEASURED_METRIC: pIC50
Remember the convention: pIC50 equals -log10 of concentration in molar.

Some solved entries appear below for comparison.
COc1cc(OC)c2c(=O)cc(-c3ccc(OCC(C)C)cc3)oc2c1	5.14
COc1cc(OC)c2c(=O)cc(-c3ccc(NC(C)C)cc3)oc2c1	5.02
C#CCOc1ccc(-c2cc(=O)c3c(O)cc(OC)cc3o2)cc1	7.31

Challenge: If you can, please state the reported pIC50 value of COc1cc(O)c(C(=O)/C=C/c2ccc(OCC(C)C)cc2)c(OC)c1 .
Response given: 6.66

Hey, just so you know, these numbers are from paper PMC8533211.
